- system.tested: human HDAC6 (Homo sapiens)
- Construct: purchased ENZO Life Sciences AG (Lausen, CH)
- Sequence (Q9UBN7 1-1215): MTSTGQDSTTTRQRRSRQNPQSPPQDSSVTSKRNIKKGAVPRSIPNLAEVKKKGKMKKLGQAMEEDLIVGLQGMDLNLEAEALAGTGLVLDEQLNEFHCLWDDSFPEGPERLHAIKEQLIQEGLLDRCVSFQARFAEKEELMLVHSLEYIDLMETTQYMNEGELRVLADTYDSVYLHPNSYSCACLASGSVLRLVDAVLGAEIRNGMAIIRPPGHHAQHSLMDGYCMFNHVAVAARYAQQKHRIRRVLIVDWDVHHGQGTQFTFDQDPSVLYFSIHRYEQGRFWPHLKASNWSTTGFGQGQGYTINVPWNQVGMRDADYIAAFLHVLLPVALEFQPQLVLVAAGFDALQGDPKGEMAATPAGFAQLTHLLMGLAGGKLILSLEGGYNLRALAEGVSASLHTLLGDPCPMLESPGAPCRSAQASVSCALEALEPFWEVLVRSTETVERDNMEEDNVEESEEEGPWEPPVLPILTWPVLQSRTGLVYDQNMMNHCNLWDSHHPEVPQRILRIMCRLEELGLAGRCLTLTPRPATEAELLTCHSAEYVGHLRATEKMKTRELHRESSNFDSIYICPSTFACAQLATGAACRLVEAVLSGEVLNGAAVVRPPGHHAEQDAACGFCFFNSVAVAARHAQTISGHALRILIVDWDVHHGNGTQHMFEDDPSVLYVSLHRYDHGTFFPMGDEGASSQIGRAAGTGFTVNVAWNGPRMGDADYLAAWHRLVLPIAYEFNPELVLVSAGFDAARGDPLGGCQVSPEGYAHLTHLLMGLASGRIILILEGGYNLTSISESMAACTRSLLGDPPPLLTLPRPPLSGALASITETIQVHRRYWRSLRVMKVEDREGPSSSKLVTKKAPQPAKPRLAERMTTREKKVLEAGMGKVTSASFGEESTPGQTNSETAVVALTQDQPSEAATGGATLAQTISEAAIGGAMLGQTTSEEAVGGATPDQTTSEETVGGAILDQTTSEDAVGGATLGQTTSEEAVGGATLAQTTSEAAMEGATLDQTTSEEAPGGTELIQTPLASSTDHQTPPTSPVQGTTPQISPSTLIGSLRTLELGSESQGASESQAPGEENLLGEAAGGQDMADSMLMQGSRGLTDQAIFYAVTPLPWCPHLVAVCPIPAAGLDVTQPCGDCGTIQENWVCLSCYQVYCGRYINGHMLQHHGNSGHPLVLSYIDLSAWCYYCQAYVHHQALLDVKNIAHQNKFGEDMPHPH
- protocol.details: In vitro HDAC enzymatic assay, HDAC6
- Assay type: biochemical
- experimental.conditions: ratio HsHDAC1 IC50/HsHDAC6 IC50
Classes based on HDAC1/6 SI: range 1: < 100; range 2: ≥ 100 and < 300; range 3: ≥ 300

- compound: "O=C(/C=C/c1ccc(NC(=O)Nc2ccc([N+](=O)[O-])cc2)cc1)NO"
  system.tested: "human HDAC6 (Homo sapiens)"
  discrete.label: "range 2"
- compound: "O=C(Nc1ccc(C(=O)NO)cc1)Nc1ccc([N+](=O)[O-])cc1"
  system.tested: "human HDAC6 (Homo sapiens)"
  discrete.label: "range 2"
- compound: "O=C(CCc1ccc(NC(=O)Nc2ccc(Cl)cc2)cc1)NO"
  system.tested: "human HDAC6 (Homo sapiens)"
  discrete.label: "range 1"
- compound: "COc1ccc(NC(=O)Nc2ccc(CCC(=O)NO)cc2)cc1"
  system.tested: "human HDAC6 (Homo sapiens)"
  discrete.label: "range 1"
- compound: "COc1ccc(NC(=O)Nc2ccc(/C=C/C(=O)NO)cc2)cc1"
  system.tested: "human HDAC6 (Homo sapiens)"
  discrete.label: "range 2"
- compound: "N/C(=N\\O)c1ccc(NC(=O)Nc2ccc(C(=O)NO)cc2)cc1"
  system.tested: "human HDAC6 (Homo sapiens)"
  discrete.label: "range 3"
- compound: "O=C(/C=C/c1ccc(NC(=O)Nc2ccccc2)cc1)NO"
  system.tested: "human HDAC6 (Homo sapiens)"
  discrete.label: "range 2"
- compound: "O=C(Nc1ccccc1)Nc1ccc(C(=O)NO)cc1 [Compound 8a, N-hydroxy-4-(3-phenylureido)bezamide]"
  system.tested: "human HDAC6 (Homo sapiens)"
  discrete.label: "range 3"
- compound: "N#Cc1ccc(NC(=O)Nc2ccc(C(=O)NO)cc2)cc1"
  system.tested: "human HDAC6 (Homo sapiens)"
  discrete.label: "range 3"
